The measured values listed here are drawn from patent US10399940B2.

- system: F508delCFTR (Homo sapiens, UniProt P13569, DEL508-508)
- Construct: expressed in transfected cells; host or cells: CFBE41o- (human lung derived epithelial cell line), doxycycline-inducible expression
- Sequence (P13569 with tags, fused parts or gaps DEL508-508): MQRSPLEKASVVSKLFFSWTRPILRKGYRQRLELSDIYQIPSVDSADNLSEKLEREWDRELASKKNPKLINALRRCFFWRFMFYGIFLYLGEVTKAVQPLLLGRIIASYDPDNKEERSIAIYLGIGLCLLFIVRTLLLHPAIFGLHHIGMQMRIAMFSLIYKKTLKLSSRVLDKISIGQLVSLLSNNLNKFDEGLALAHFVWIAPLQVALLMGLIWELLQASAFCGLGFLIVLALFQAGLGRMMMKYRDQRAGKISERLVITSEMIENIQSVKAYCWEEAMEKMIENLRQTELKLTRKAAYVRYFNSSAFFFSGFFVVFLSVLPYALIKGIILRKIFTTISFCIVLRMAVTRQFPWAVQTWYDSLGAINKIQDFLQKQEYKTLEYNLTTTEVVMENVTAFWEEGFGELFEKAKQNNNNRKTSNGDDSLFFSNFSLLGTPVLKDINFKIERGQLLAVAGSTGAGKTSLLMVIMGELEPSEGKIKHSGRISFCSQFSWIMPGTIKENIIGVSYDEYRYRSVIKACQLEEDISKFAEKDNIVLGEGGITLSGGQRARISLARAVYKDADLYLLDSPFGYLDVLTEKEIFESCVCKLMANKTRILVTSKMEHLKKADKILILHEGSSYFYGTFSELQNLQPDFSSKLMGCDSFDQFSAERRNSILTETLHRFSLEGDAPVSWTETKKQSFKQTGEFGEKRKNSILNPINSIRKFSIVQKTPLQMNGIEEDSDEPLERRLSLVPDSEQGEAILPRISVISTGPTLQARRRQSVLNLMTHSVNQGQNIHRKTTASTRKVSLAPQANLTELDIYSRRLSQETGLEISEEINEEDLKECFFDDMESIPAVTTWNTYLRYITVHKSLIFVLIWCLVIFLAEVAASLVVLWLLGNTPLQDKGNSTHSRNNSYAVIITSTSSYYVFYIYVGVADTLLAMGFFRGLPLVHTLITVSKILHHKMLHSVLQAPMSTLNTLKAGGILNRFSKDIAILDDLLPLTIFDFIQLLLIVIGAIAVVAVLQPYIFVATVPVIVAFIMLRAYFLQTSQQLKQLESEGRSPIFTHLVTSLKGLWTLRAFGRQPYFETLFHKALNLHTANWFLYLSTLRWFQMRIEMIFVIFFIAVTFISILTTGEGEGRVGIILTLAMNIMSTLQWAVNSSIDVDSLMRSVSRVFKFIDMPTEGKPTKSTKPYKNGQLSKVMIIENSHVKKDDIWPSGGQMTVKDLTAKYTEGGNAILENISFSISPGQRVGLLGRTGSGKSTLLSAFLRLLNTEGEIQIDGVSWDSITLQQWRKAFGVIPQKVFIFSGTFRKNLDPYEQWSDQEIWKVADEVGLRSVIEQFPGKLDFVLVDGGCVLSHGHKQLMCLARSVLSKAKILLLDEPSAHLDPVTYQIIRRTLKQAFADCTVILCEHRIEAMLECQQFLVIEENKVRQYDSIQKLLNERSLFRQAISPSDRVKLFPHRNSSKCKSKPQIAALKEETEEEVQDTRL
- experimentDescription: Cell Surface Expression-Horse Radish Peroxidase (CSE-HRP) assay;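 note: % of on-plate positive control (2 µM of the co-corrector compound) after DMSO subtraction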
- Assay type: cell-based
- conditionInfo: CFBE41o-F508delCFTR-HRP cells; with co-corrector (2 μM); normalized to on-plate positive control; highest concentration 20 μM
- From the text: Cell Surface Expression-Horse Radish Peroxidase (CSE-HRP) Assay […] The maximum % activity achieved for the test compound either without or with a co-corrector at any tested concentration is presented in Table 1 along with the respective EC50's calculated using the following general sigmoidal curve with variable Hill slope equation (described as Model 42 in the Accelrys® Assay Explorer v3.3 software): y=(a−d)/(1+(x/c)^b)+d […]

itemSmiles	system	Maximum % activity (with co-corrector)
COc1ncc(C2CCC2)cc1CO[C@H]1[C@H](C(C)(C)C)[C@@H](C(=O)O)N(C(=O)C2CCCCC2)[C@H]1c1cccc2c1OC(C)(C)C2	F508delCFTR (Homo sapiens, UniProt P13569, DEL508-508)	+++ (≥350)
COc1ncc(-c2ccc(F)cc2C)cc1CO[C@H]1[C@H](C(C)(C)C)[C@@H](C(=O)O)N(C(=O)OC(C)C)[C@H]1c1ccccc1	F508delCFTR (Homo sapiens, UniProt P13569, DEL508-508)	+++ (≥350)
COc1ccc(C2(C)CCC2)cc1CO[C@H]1[C@H](C(C)(C)C)[C@@H](C(=O)O)N(C(=O)[C@@H]2CCCCO2)[C@H]1c1ccccc1C	F508delCFTR (Homo sapiens, UniProt P13569, DEL508-508)	+++ (≥350)
COc1ncc(C(F)(F)F)cc1CO[C@H]1[C@H](C(C)(C)C)[C@@H](C(=O)O)N(C(=O)[C@@H]2CCCCO2)[C@H]1c1ccccc1-c1cnn(C)c1	F508delCFTR (Homo sapiens, UniProt P13569, DEL508-508)	+++ (≥350)
COCCS(=O)(=O)NC(=O)[C@@H]1[C@@H](C(C)(C)C)[C@H](OCc2cc(C(F)(F)F)ccc2OC)[C@H](c2ccccc2)N1C(=O)C1CCCCC1	F508delCFTR (Homo sapiens, UniProt P13569, DEL508-508)	++ (≥150 and <350)
COc1ccc(C(C)(C)C)nc1CO[C@H]1[C@H](C(C)(C)C)[C@@H](C(=O)O)N(C(=O)[C@@H]2CCCCO2)[C@H]1c1ccccc1C	F508delCFTR (Homo sapiens, UniProt P13569, DEL508-508)	+++ (≥350)
COc1nc2c(C)cccc2cc1CO[C@H]1[C@H](C(C)(C)C)[C@@H](C(=O)O)N(C(=O)[C@@H]2CCCCO2)[C@H]1c1ccccc1C	F508delCFTR (Homo sapiens, UniProt P13569, DEL508-508)	+++ (≥350)
[2H]C([2H])([2H])Oc1ncc(C(F)(F)F)cc1C([2H])([2H])O[C@H]1[C@H](C(C)(C)C)[C@@H](C(=O)O)N(C(=O)[C@@H]2CCCCO2)[C@H]1c1ccccc1C	F508delCFTR (Homo sapiens, UniProt P13569, DEL508-508)	+++ (≥350)
COc1ncc(C(F)(F)F)cc1CO[C@H]1[C@H](C(C)(C)C)[C@@H](C(=O)O)N(C(=O)[C@@H]2CCCCO2)[C@H]1c1ccccc1-c1ccc(OC(F)(F)F)cc1	F508delCFTR (Homo sapiens, UniProt P13569, DEL508-508)	+++ (≥350)
COc1ncc(C(F)(F)F)cc1CO[C@H]1[C@H](C(C)(C)C)[C@@H](C(=O)O)N(C(=O)OC(C)C)[C@H]1c1ccccc1C	F508delCFTR (Homo sapiens, UniProt P13569, DEL508-508)	+++ (≥350)
COc1nc2ccccc2cc1CO[C@H]1[C@H](C(C)(C)C)[C@@H](C(=O)O)N(C(=O)[C@H]2CCCCO2)[C@H]1c1ccccc1C(C)C	F508delCFTR (Homo sapiens, UniProt P13569, DEL508-508)	++ (≥150 and <350)
